# SYSTEM TESTED: Aβ1-40 (Homo sapiens)
# Construct: (β-AP1-40) was obtained commercially from Bachem (Torrance, Calif.); purchased Bachem (Torrance, Calif.)
# Sequence (P05067 672-711): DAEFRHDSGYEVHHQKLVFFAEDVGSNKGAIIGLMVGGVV
# PROTOCOL TEXT: Nucleation assay (turbidity, A405 nm);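 further: synthetic Aβ monomer polymerization followed by turbidity in 96-well plates with continuous shaking, read every 15 minutes over 5 hours, compared against wells lacking test compound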
# Format: biochemical
# REPORTED CONDITIONS: Table V; 100 mole % inhibitor
Primed or numbered codes have the meaning given here. * marks the point of attachment. Adp″ = aminoethyldibenzofuranylpropanoic acid, NCCc1cccc2c1oc1c(CCC(=O)*)cccc12; NMeV = CN[C@H](C(=O)O)C(C)C; CA = not defined here
MEASURED QUANTITY: % Inucl'n (percent reduction in maximum observed turbidity) (%)

PPI-395: CA-FFA-oh ({CA}-Phe-Phe-Ala-OH; reading uncertain; also: printed as CA-FFA-oh) | 51
PPI-394: CA-VFF-oh ({CA}-Val-Phe-Phe-OH; reading uncertain; also: printed as CA-VFF-oh) | 55
PPI-429: CA-FFV-oh ({CA}-Phe-Phe-Val-OH; reading uncertain; also: printed as PPI-429: CA-FFV-oh) | −33

A = PPI-438: CA-GFF-oh ({CA}-Gly-Phe-Phe-OH; reading uncertain; also: printed as PPI-438: CA-GFF-oh)
B = PPI-403: h-DDIII(N-Me-Val)DLL(Adp)-HQKLVFF-oh ({H2N-Asp-Asp-Ile-Ile-Ile-NMeV-Asp-Leu-Leu-Adp″}-HQKLVFF-OH)
QUERY: Which of the two items, A and B , has the greater recorded % Inucl'n (percent reduction in maximum observed turbidity)? Your answer should be the label of the entry you select.
RESULT: A
